# assayInfo: CREB reporter modulators without forskolin, primary screen, cell-based, PC12, CRE-LacZ reporter, unstimulated (AID 1145)
# cond: no forskolin, luminescence, 4.5 h, higher = more signal, called active from +8 up or from −8 down
Calls of active or inactive are those of the source.
Each record here notes measured z-score.

compoundString	z-score
COC(=O)[C@@]1(Cc2ccc(F)cc2)[C@H]2c3cc(C(=O)N4CCCC4)n(CC4CC4)c3C[C@H]2CN1C(=O)c1ccccc1	0.972 (inactive)
CCOC(=O)C1=CC[C@@H](c2ccccc2)N(S(=O)(=O)c2ccc(C)cc2)[C@H]1C=Cc1ccccc1	-0.0696 (inactive)
COCCOC(=O)N1C(=O)[C@@]2(c3cc(C#CC4(O)CCCCCC4)ccc31)[C@H](C(=O)N1CCN(c3ncccn3)CC1)[C@H]1C(=O)O[C@H](c3ccccc3)[C@H](c3ccccc3)N1[C@@H]2c1ccccc1OCCO	0.204 (inactive)

====

# assayInfo: basal RPMI8226 mitochondrial membrane potential changes, profiling panel, cell-based, JC-1 fluorescence, 24 h, 100 nL compound (AID 1169); further: test concentration not given here
# cond: RPMI8226 myeloma, JC-1 mitochondrial potential fluorescence, higher = more signal
Examples of compounds with documented z-score follow.
observable: z-score

compound	reported
C=C(C(=O)CC[C@@H](OC(=O)c1ccccc1-c1ccccc1C(=O)O)c1ccccc1OCCO)C(C)C	0.0612
COc1ccc(C(O)C2C=CC3C(=O)N(c4ccccc4)C(=O)C3N2Nc2ccccc2)cc1 (centres undefined)	-0.402
C=CCC(OC(C)=O)[C@@H]1[C@@H](N(Cc2cccc3ccccc23)C(=O)c2ccc(-c3ccccc3)cc2)c2cc(OCCCO)ccc2N1C(=O)c1ccc(-c2ccccc2)cc1 (some centres undefined)	0.603
Cc1ccc(S[C@]2(C(=O)NCc3ccccc3)CC(=O)N(Cc3cc(C(F)(F)F)cc(C(F)(F)F)c3)[C@@H]2c2ccc(CO)cc2I)cc1	-0.133
CN1C(=O)C2C(C1=O)C1C=C(CCCO)C2C(c2cccs2)N1Cc1cc2c(cc1Br)OCO2 (centres undefined)	-0.309
COC(=O)[C@@]1(Cc2ccc(F)cc2)[C@H]2c3cc(C(=O)N4CCCC4)n(CC4CC4)c3C[C@H]2CN1C(=O)c1ccccc1	-0.232
CCCCCN1CC=CC23O[C@@H]4C=CCOC(=O)[C@@H]4[C@H]2C(=O)N(CCO)[C@@H]3C1=O (some centres undefined)	0.174
C[C@]1(C(=O)NCCN2CCOCC2)c2ccccc2C(=O)N(Cc2cc(F)cc(C(F)(F)F)c2)[C@H]1c1ccc(CO)cc1	0.695
COc1ccc([Si](C)(C)[C@H]2[C@H](CCO)O[C@@]3(C(=O)N(Cc4ccc(N5C(=O)c6ccccc6Oc6ccccc65)cc4)c4ccccc43)[C@@H]2C)cc1	-1.01
O=C1C2C=CC(C(O)c3cccc(O)c3)N(Nc3ccccc3)C2C(=O)N1c1ccccc1 (centres undefined)	-0.0193
O=C1N(CCS(=O)(=O)c2ccccc2)Cc2ccccc2[C@@H]2OC(c3ccc(OCCCO)cc3)=N[C@]12CCS(=O)(=O)c1ccccc1	-0.933
CCOC(=O)C[C@H]1[C@H](OC(=O)c2ccccc2-c2ccccc2)[C@@H](NC(=O)c2ccc3ccccc3n2)c2cc(OCCCO)ccc2N1C(=O)c1ccccc1	-0.707
COc1ccc([Si](C)(C)[C@H]2[C@H](CCO)O[C@@]3(C(=O)N(Cc4ccccc4)c4ccc(N5C(=O)c6ccccc6Oc6ccccc65)cc43)[C@@H]2C)cc1	-0.896
COc1ccc([Si](C)(C)[C@@H]2[C@@H](CC(=O)N3Cc4ccccc4C[C@H]3CO)O[C@]3(C(=O)N(c4ccccc4)c4ccccc43)[C@H]2C)cc1	-1.06

Sourced from PubChem BioAssay
